biological target: CDK19 (Homo sapiens, UniProt Q9BWU1); construct: made in house; host or cells: E. coli BL21-derived host (T7 phage display) or HEK-293 cells; assay: Kinase competition binding assay (Kd, qPCR readout), CDK19; settings: in vitro binding; 11-point 3-fold dilution series; read-out: pKd (CDK19) (converted)
Sequence (Q9BWU1 whole entry): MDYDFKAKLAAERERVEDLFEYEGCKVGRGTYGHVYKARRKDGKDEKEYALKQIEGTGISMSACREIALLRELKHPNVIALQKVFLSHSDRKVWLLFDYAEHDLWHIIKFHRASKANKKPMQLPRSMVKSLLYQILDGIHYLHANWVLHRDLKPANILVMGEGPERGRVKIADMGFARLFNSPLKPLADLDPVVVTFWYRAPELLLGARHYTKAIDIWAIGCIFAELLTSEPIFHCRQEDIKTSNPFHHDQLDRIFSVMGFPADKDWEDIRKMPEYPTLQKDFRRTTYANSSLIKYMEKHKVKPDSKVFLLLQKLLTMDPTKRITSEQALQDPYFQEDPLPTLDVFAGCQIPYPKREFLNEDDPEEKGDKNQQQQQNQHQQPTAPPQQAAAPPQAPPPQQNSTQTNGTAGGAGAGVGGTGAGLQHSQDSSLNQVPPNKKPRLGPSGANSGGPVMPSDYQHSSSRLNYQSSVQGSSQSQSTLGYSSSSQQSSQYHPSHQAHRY
measurement-kind: Kd (µM)

Worked examples, 4 compounds total:
smiles_representation=CN(C)CCn1cnc(C(=O)NC2CCN(c3snc4ccccc34)CC2)c1 tested_target="CDK19 (Homo sapiens, UniProt Q9BWU1)" unit=µM assay_value=1.26
smiles_representation=O=C(NC1CCN(c2snc3ccccc23)CC1)c1cn(Cc2ncccn2)cn1 tested_target="CDK19 (Homo sapiens, UniProt Q9BWU1)" unit=µM assay_value=0.1
smiles_representation=CNC1CCN(c2snc3ccccc23)CC1 tested_target="CDK19 (Homo sapiens, UniProt Q9BWU1)" unit=µM assay_value=31.6
smiles_representation=Cn1cnc(C(=O)NC2CCN(c3snc4ccc(F)cc34)CC2)c1 tested_target="CDK19 (Homo sapiens, UniProt Q9BWU1)" unit=µM assay_value=0.0501

(I) Cn1cnc(C(=O)NC2CCN(c3snc4ccccc34)CC2)c1
(II) CC(=O)NC1CCN(c2snc3ccccc23)CC1
In: Name the one with the greater Kd value, either I or II as given. Give the chosen item's label as your response.
Out: II
(II: 6.31 µM, I: 0.158 µM)

Ref: patent US20260103458A1
